The following binders are listed with their measured EC50 of hC3 cleavage values.
biological target: plasma purified human complement protein C3 (human) (UniProt P01024); assay: cell-based or functional assay
Sequence (P01024 23-667, chain 1 of 2): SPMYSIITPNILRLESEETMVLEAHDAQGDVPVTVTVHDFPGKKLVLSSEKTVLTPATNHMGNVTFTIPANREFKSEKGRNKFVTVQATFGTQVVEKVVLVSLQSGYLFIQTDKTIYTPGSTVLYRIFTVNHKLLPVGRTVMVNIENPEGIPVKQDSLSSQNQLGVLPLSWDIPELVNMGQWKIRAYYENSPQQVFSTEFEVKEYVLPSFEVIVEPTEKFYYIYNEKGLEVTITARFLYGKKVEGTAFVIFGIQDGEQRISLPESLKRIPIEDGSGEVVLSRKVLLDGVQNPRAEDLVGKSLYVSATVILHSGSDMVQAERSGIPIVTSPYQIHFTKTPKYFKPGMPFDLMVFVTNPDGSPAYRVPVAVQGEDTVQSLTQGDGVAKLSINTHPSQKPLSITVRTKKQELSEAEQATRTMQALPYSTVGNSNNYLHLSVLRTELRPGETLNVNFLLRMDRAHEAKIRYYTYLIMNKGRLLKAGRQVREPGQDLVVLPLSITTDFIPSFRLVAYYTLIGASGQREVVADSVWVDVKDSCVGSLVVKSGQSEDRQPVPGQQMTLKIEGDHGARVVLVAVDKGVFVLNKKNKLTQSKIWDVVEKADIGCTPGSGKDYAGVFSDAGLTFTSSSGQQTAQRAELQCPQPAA
Sequence (P01024 672-1663, chain 2 of 2): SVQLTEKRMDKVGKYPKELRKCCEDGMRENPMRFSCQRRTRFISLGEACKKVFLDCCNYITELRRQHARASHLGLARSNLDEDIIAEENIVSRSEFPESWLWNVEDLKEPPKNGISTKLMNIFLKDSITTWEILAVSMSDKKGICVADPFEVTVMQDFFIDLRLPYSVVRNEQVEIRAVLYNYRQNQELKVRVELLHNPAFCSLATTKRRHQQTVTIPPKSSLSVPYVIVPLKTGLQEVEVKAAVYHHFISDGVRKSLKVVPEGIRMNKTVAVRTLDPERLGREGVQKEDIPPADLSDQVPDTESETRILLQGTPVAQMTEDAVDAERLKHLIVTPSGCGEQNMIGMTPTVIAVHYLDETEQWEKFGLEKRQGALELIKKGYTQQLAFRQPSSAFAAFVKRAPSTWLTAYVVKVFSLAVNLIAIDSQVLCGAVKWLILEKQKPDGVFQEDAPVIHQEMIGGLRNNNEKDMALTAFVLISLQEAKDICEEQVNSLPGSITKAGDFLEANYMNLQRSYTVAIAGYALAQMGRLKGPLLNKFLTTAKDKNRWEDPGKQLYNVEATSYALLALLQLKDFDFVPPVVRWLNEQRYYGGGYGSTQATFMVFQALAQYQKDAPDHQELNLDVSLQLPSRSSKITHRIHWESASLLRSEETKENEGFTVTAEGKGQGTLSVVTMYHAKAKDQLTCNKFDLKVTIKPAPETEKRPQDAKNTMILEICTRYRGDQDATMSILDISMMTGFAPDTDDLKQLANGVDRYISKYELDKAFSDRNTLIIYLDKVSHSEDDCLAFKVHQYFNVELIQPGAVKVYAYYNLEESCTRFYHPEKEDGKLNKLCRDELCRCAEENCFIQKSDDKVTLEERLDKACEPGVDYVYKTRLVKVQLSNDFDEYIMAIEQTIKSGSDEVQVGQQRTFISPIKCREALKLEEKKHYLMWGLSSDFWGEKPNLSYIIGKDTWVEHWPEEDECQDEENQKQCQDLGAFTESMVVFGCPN
value kind: EC50 of hC3 cleavage (nM)

binder: MTSP-1 I41S/D60bT/F93L/ins97aV/F97D/T98P/F99L/C122S/Q192G/D217H (enzyme) VVGGTDADEGEWPWQVSLHALGQGHSCGASLISPNWLVSAAHCYIDTRGFRYSDPTQWTAFLGLHDQSQRSAPGVQERRLKRIISHPLFNDDVPLDYDIALLELEKPAEYSSMVRPISLPDASHVFPAGKAIWVTGWGHTQYGGTGALILQKGEIRVINQTTCENLLPQQITPRMMCVGFLSGGVDSCGGDSGGPLSSVEADGRIFQAGVVSWGHGCAQRNKPGVYTRLPLFRDWIKENTGV
value kind: EC50 of hC3 cleavage
unit info: nM
reported result: 27.7
//
binder: MTSP-1 Q38R/I41S/D60bY/F60eD/ins97aV/F97D/T98P/F99L/C122S/G151N/Q175M/Q192A (enzyme) VVGGTDADEGEWPWQVSLHALGRGHSCGASLISPNWLVSAAHCYIDYRGDRYSDPTQWTAFLGLHDQSQRSAPGVQERRLKRIISHPFFNDDVPLDYDIALLELEKPAEYSSMVRPISLPDASHVFPAGKAIWVTGWGHTQYGGTNALILQKGEIRVINQTTCENLLPQMITPRMMCVGFLSGGVDSCAGDSGGPLSSVEADGRIFQAGVVSWGDGCAQRNKPGVYTRLPLFRDWIKENTGV
value kind: EC50 of hC3 cleavage
unit info: nM
reported result: 3.22
//
binder: MTSP-1 Q38H/I41S/D60bT/F60eR/ins97aE/F97T/T98G/F99L/C122S/Q175L/Q192E (enzyme) VVGGTDADEGEWPWQVSLHALGHGHSCGASLISPNWLVSAAHCYIDTRGRRYSDPTQWTAFLGLHDQSQRSAPGVQERRLKRIISHPFFNDTEGLDYDIALLELEKPAEYSSMVRPISLPDASHVFPAGKAIWVTGWGHTQYGGTGALILQKGEIRVINQTTCENLLPQLITPRMMCVGFLSGGVDSCEGDSGGPLSSVEADGRIFQAGVVSWGDGCAQRNKPGVYTRLPLFRDWIKENTGV
value kind: EC50 of hC3 cleavage
unit info: nM
reported result: 15.4
//
binder: MTSP-1 I41R/F99L/C122S/Q192G (enzyme) VVGGTDADEGEWPWQVSLHALGQGHRCGASLISPNWLVSAAHCYIDDRGFRYSDPTQWTAFLGLHDQSQRSAPGVQERRLKRIISHPFFNDFTLDYDIALLELEKPAEYSSMVRPISLPDASHVFPAGKAIWVTGWGHTQYGGTGALILQKGEIRVINQTTCENLLPQQITPRMMCVGFLSGGVDSCGGDSGGPLSSVEADGRIFQAGVVSWGDGCAQRNKPGVYTRLPLFRDWIKENTGV
value kind: EC50 of hC3 cleavage
unit info: nM
reported result: 53.8
//
binder: MTSP-1 I41D/Y59F/D96E/F99L/C122S/G151N/Q192T (enzyme) VVGGTDADEGEWPWQVSLHALGQGHDCGASLISPNWLVSAAHCFIDDRGFRYSDPTQWTAFLGLHDQSQRSAPGVQERRLKRIISHPFFNEFTLDYDIALLELEKPAEYSSMVRPISLPDASHVFPAGKAIWVTGWGHTQYGGTNALILQKGEIRVINQTTCENLLPQQITPRMMCVGFLSGGVDSCTGDSGGPLSSVEADGRIFQAGVVSWGDGCAQRNKPGVYTRLPLFRDWIKENTGV
value kind: EC50 of hC3 cleavage
unit info: nM
reported result: 54.9
//
binder: MTSP-1 Q38H/I41S/D60bT/S90T/F97D/ins97aV/T98P/F99L/C122S/S127N/I136F/Q192G/D217Q (enzyme) VVGGTDADEGEWPWQVSLHALGHGHSCGASLISPNWLVSAAHCYIDTRGFRYSDPTQWTAFLGLHDQSQRSAPGVQERRLKRIITHPFFNDDVPLDYDIALLELEKPAEYSSMVRPISLPDANHVFPAGKAFWVTGWGHTQYGGTGALILQKGEIRVINQTTCENLLPQQITPRMMCVGFLSGGVDSCGGDSGGPLSSVEADGRIFQAGVVSWGQGCAQRNKPGVYTRLPLFRDWIKENTGV
value kind: EC50 of hC3 cleavage
unit info: nM
reported result: 21.2
//
binder: MTSP-1 H40R/I41H/F97D/F99L/Q175R/Q192G/D217E/K224R (enzyme) VVGGTDADEGEWPWQVSLHALGQGRHCGASLISPNWLVSAAHCYIDDRGFRYSDPTQWTAFLGLHDQSQRSAPGVQERRLKRIISHPFFNDDTLDYDIALLELEKPAEYSSMVRPICLPDASHVFPAGKAIWVTGWGHTQYGGTGALILQKGEIRVINQTTCENLLPQRITPRMMCVGFLSGGVDSCGGDSGGPLSSVEADGRIFQAGVVSWGEGCAQRNRPGVYTRLPLFRDWIKENTGV
value kind: EC50 of hC3 cleavage
unit info: nM
reported result: 21.9
//
binder: MTSP-1 Q38H/I41S/D60bT/F60eS/ins97aV/F97D/T98P/F99L/C122S/G151H/Q175A/Q192D (enzyme) VVGGTDADEGEWPWQVSLHALGHGHSCGASLISPNWLVSAAHCYIDTRGSRYSDPTQWTAFLGLHDQSQRSAPGVQERRLKRIISHPFFNDDVPLDYDIALLELEKPAEYSSMVRPISLPDASHVFPAGKAIWVTGWGHTQYGGTHALILQKGEIRVINQTTCENLLPQAITPRMMCVGFLSGGVDSCDGDSGGPLSSVEADGRIFQAGVVSWGDGCAQRNKPGVYTRLPLFRDWIKENTGV
value kind: EC50 of hC3 cleavage
unit info: nM
reported result: 67.8
//
binder: MTSP-1 Q38T/I41S/D60bG/F60eM/ins97aV/F97D/T98P/F99L/C122S/G151N/Q175S/Q192S (enzyme) VVGGTDADEGEWPWQVSLHALGTGHSCGASLISPNWLVSAAHCYIDGRGMRYSDPTQWTAFLGLHDQSQRSAPGVQERRLKRIISHPFFNDDVPLDYDIALLELEKPAEYSSMVRPISLPDASHVFPAGKAIWVTGWGHTQYGGTNALILQKGEIRVINQTTCENLLPQSITPRMMCVGFLSGGVDSCSGDSGGPLSSVEADGRIFQAGVVSWGDGCAQRNKPGVYTRLPLFRDWIKENTGV
value kind: EC50 of hC3 cleavage
unit info: nM
reported result: 28.8
//
binder: MTSP-1 Q38E/I41S/D60bH/F60eI/F97T/ins97aE/T98G/F99L/C122S/Q175L/Q192V (enzyme) VVGGTDADEGEWPWQVSLHALGEGHSCGASLISPNWLVSAAHCYIDHRGIRYSDPTQWTAFLGLHDQSQRSAPGVQERRLKRIISHPFFNDTEGLDYDIALLELEKPAEYSSMVRPISLPDASHVFPAGKAIWVTGWGHTQYGGTGALILQKGEIRVINQTTCENLLPQLITPRMMCVGFLSGGVDSCVGDSGGPLSSVEADGRIFQAGVVSWGDGCAQRNKPGVYTRLPLFRDWIKENTGV
value kind: EC50 of hC3 cleavage
unit info: nM
reported result: 10.4
